# Method Notes: yeast display, Sf9 membrane polyspecificity reagent, FACS + sequencing; frameworks hold sequencing errors
Readout Name: polyreactivity (PSR sort gate)

* QVQLVESGGGLVQAGGSLRLSCAASGYILYPYAMGWYRQAPGKERELVAAIRQRGGSTYYADSVKGRFTISRDYAKNTVYLQMNSLKPEDTAVYYCAAYLSPKRALTRGYGYWGQGTQVTVSS | high polyreactivity
* QVQLEESGGGLVQAGGSLRLSCAASGIIFITYAMGWYRQAPGKEREMVAAITNSGGGTYYADSVKGRFTISRDNAKNTVYLQLNSLKPEDTAVYYCAARKTAYGYRYDYWGQGTQVTVSS | high polyreactivity
* QVQLVESGGGLVQAGGSLRLSCAASGSTFVPYAMGWYRQAPGKERELVAVITRGSTNYADSVKGRFTISRDNAKNTVYLQMNRLKPEDTAVYYCAVDVARGVLDYSFDSWGQGTQVTVSS | high polyreactivity
* QVQLVESGGGLVQAGGSLRLSCAASGSTFYKYAMGWYRQAAGKERELVASISRSGGSTSYADSVKGRFTISRDNGKNTVYLQMYCLKPEDTAVYYCAATWRQHPGSMGYWGQGTQVTVSS | high polyreactivity
